tested on: SN12C renal; experiment: NCI tumour cell line growth inhibition, 48 h
GI50 reference

Take a look at these entries with their results.
compound	studySystem	GI50
CCN(Cc1ccc(F)cc1)c1ccc(CO)c(C)c1	SN12C renal	19.3 µM
Cc1ccc(-c2c3c(nn2-c2ccc(S(N)(=O)=O)cc2)-c2ccccc2C3)cc1	SN12C renal	16.9 µM
Cc1cc(S(=O)(=O)/N=C/N(C)C)c(SC(=O)c2ccc(Cl)cc2)cc1Cl	SN12C renal	26.8 µM
CC(C)N1CCN(Cc2ccc3c(NNC(=O)c4ccccc4)nc4cc(F)ccc4n23)CC1	SN12C renal	0.529 µM
COc1ccc(/C=c2\sc3n(c2=O)C2C(NN=3)N(C)C(=O)N2C)cc1 (stereo not drawn)	SN12C renal	1.63 µM

I am curious: what GI50 value has been reported for `COc1cccc2c1-c1c(c3ccc([N+](=O)[O-])cc3c(=O)n1CCCN)C2=O` ?
3.23 µM

Consider next the compound `CC(=O)c1c(CN(C)c2ccccc2)n([O-])c2ccccc2[n+]1=O` in the same way.
24.9 µM

Further, for `Cc1cc(Nc2nc(-c3cccnc3)nc3ccccc23)n[nH]1` ?
3.21 µM

###

Collected TGI values appear next to each entry.
tested on: U251 CNS; assay: NCI tumour cell line growth inhibition, 48 h

# count of solved cases: 2
molecule	studySystem	TGI
C(=N\Nc1ccc(-c2nc3ccccc3[nH]2)cc1)/c1c(-c2ccc(Cc3ccccc3)cc2)[nH]c2ccccc12	U251 CNS	> 51.2 µM
CN=C(NC(=S)N(C)C)N(C)C	U251 CNS	> 100 µM

Recorded TGI for `NC(=O)c1ccccc1NC(=O)C(=O)Cc1nc2ccccc2[nH]c1=O` , please?
> 100 µM

What about this molecule? O=S(OC12CC3CC(CC(C3)C1)C2)c1cc(Cl)cc(Cl)c1OCc1ccccc1 (stereo not given)
> 100 µM

How about CCOP(=O)(OCC)C(c1ccccc1)N(C(=O)NC(F)(F)F)c1cccc(F)c1 (stereo not given) ?
> 100 µM

Would you mind doing COC(OC)C1OCC(n2cc(F)c(=O)[nH]c2=O)C1O (stereo not given) as well?
> 100 µM

Try this molecule too: `CN(C)c1ccc(/C=C/c2ccc(/C=C/c3ccc(N(C)C)cc3)cc2)cc1`
> 100 µM

Would you mind doing `Nc1c(O)cc(N=C2C(=O)C=CC=C2C(=O)O)c(O)c1C(=O)O` as well?
> 100 µM

Ok, now `Cc1cccc(C(C)C)c1N1C(=O)C(=O)C(c2nc3ccccc3o2)C(=O)C1=O`
> 100 µM

One more molecule: `Nc1ccccc1.[C-]#[O+].[C-]#[O+].[C-]#[O+].[C-]#[O+].[C-]#[O+].[Cr]`
> 10 µM

###

Quick list: TGI per entry.
test system: RXF 393 renal; test: NCI tumour cell line growth inhibition, 48 h
Please state the figure in µM; there is no need to write the unit.

molecule	studySystem	TGI / µM
N#Cc1c(Br)n(C2OC(CO)C(O)C2O)c2ncnc(N)c12 (centres undefined)	RXF 393 renal	6.8
Cc1ccc(-n2cc(-c3ccc(Cl)cc3)c3c(N/N=C4\SCC(=O)N4C)ncnc32)cc1	RXF 393 renal	48.1
COC(=O)C1=C(OC(=O)/C=C/c2ccccc2)C(C(=O)OC)[C@@]2(O)[C@@H](C(=O)OC)[C@H](C)C[C@@H]1[C@@H]2C(=O)OC (some centres undefined)	RXF 393 renal	34.1

Endpoint output: TGI of CCCCCCCC(CC(=O)NC(CO)C(=O)NC(CO)CC(C)C)OC(=O)CC(CCCCCCC)OC(=O)CC(CCCCCCC)OC1OC(C)C(O)C(OC2OC(C)C(O)C(O)C2OC(C)=O)C1O (centres undefined) . Value?
9.29

###

system: MALME-3M melanoma; experiment: NCI tumour cell line growth inhibition, 48 h
valueType: GI50

Reported GI50, compound `C=C1C(=O)O[C@H]2[C@H]1CC/C(COC(=O)CCSCCC(=O)OC/C1=C/CC[C@@]3(C)O[C@H]3[C@H]3OC(=O)C(=C)[C@@H]3CC1)=C\CC[C@@]1(C)O[C@@H]21` : ____
1120 nM

Could you do the same for `Cn1nc(-c2ccc(Cl)cc2)nc2c(=O)n(C)c(=O)nc1-2` , please?
382 nM

Then this compound: `Oc1ccc(-c2nc3ccc4[nH]ncc4c3c3c2CCCC3)c(F)c1`
3360 nM

`CC1=CC(=O)C(C(C)C)=CC1=Nc1cc(Br)c(O)c(Br)c1` , same question.
14100 nM

Try the compound COC1=C(C)C(=O)c2c(c(CCCl)c3n2CCC3O)C1=O (stereo not given)
230 nM

Please answer likewise for COc1cc2c(cc1OC)C(Sc1ccc(SC)cc1)c1c(nc(N)c(C#N)c1N)O2 (stereo not given)
1850 nM

Consider next the compound `CCCCCCNC(=O)Oc1ccc(/C(=C(/C)Cc2ccc(OC)cc2)c2ccc(OCCCN(C)C)cc2)cc1` in the same way.
15300 nM

Request: `O=C(O)c1cn(C2CC2)c2cc(N3CCN(C(=O)Nc4nc(-c5ccccc5)cs4)CC3)c(F)cc2c1=O`
1530 nM

Here is the next compound: `CC(C)N1CCN(Cc2ccc3c(NNC(=O)c4ccccc4)nc4cc(F)ccc4n23)CC1`
575 nM

// repeat for N#Cc1c(Br)n(C2OC(CO)C(O)C2O)c2ncnc(N)c12 (stereo not given) and report
2530 nM

###

system: CAKI-1 renal; assay: NCI tumour cell line growth inhibition, 48 h
Item-by-item account of TGI

molecule	valueType	result
Fc1ccc(N=C/C=C/Nc2ccc(F)cc2)cc1	TGI	28.2 µM
O=C(O)c1cn(C2CC2)c2cc(N3CCN(C(=O)Nc4nc(-c5ccccc5)cs4)CC3)c(F)cc2c1=O	TGI	> 100 µM
Clc1ccc(-c2nnc(-c3cccc4ccccc34)o2)cc1Cl	TGI	> 100 µM
C[n+]1c(-c2ccc(/C=N/Nc3ccnc(N/N=C/c4ccc(-c5cn6ccsc6[n+]5C)cc4)n3)cc2)cn2ccsc21	TGI	66.6 µM
CCCC(O)c1cn(C(NC(=O)c2ccccc2)P(=O)(OCC)OCC)nn1 (stereo unspecified)	TGI	> 100 µM
Cc1c(-c2ccccc2)nn2cc(-c3ccccc3)nnc12	TGI	> 100 µM

So what's the measured TGI for this one? `CCOC(=O)c1nc2ccccc2nc1Oc1ccc(C(=O)OC)cc1`
> 100 µM

Same question for COc1cccc(/C=N/NC(=S)NC2CC3CCC2C3)c1O (stereo unspecified) please.
15.9 µM

Now this one: `CN=C(NC(=S)N(C)C)N(C)C`
> 100 µM

Could you do the same for `COc1ccccc1C1=C(Nc2ccccc2)C(=O)NC1=O` , please?
> 25 µM

Same question, `CCOC(=O)c1cc(I)c(-c2cc(C)no2)n1C` this time
54.7 µM

###

tested on: DU-145 prostate; test: NCI tumour cell line growth inhibition, 48 h
valueType: TGI

Field: example entries. Status: answers known.
compound	TGI
CCOc1cc(Br)c(C(C)NC(=O)c2cccc(OC)c2)cc1OCC (centres undefined)	> 100 µM
COc1cc2oc(=O)cc(C)c2cc1O	> 100 µM
ON(Cc1ccccc1)C(=S)c1ccccc1	> 100 µM

Shift focus to the following entry.
Data request, read-out TGI, for `C[n+]1c(-c2ccc(/C=N/Nc3ccnc(N/N=C/c4ccc(-c5cn6ccsc6[n+]5C)cc4)n3)cc2)cn2ccsc21`
82 µM

###

Attribute: TGI
tested on: HOP-62 NSCLC; experiment: NCI tumour cell line growth inhibition, 48 h

Before answering, review these 5 worked examples.
compound	studySystem	TGI
Cc1ccc(C(NC(=O)c2ccccc2)c2ccc3cccnc3c2O)cc1 (centres undefined)	HOP-62 NSCLC	> 41.6 µM
COC(=O)C1=C(c2ccc(OC)c(OC)c2)OC(c2cc(OC)c(OC)c(OC)c2)C1 (centres undefined)	HOP-62 NSCLC	47.4 µM
CC(C)N1CCN(Cc2ccc3c(NNC(=O)c4ccccc4)nc4cc(F)ccc4n23)CC1	HOP-62 NSCLC	13.7 µM
CC(=O)OC1=CC2=CC[C@H]3[C@@H]4CCC(=O)[C@@]4(C)CC(=O)[C@]3(S)[C@@]2(C)CC1	HOP-62 NSCLC	> 100 µM
Cc1ccc(-c2c3c(nn2-c2ccc(S(N)(=O)=O)cc2)-c2ccccc2C3)cc1	HOP-62 NSCLC	36.1 µM

HOP-62 NSCLC / TGI / `CCOC(=O)c1nc2ccccc2nc1Oc1ccc(C(=O)OC)cc1` : value?
> 100 µM

CCCCCc1cc2cc3c(c(O)c2c(=O)[nH]1)C1(CCC3)C(O)=c2c(=O)c3c(=O)cc(OC)c(=O)c=3c(=O)c2=C1O (centres undefined) , same question.
7.67 µM

Again, but for O=[N+]([O-])c1ccc(C(Nc2ccccc2)P(c2ccccc2)c2ccccc2)cc1 (centres undefined)
> 100 µM

Here is the next compound: `Fc1ccc(N=C/C=C/Nc2ccc(F)cc2)cc1`
33 µM
